# assayed-target: Metabotropic glutamate receptor 5 (Homo sapiens)
# Sequence (P41594 21-1212 limits assumed): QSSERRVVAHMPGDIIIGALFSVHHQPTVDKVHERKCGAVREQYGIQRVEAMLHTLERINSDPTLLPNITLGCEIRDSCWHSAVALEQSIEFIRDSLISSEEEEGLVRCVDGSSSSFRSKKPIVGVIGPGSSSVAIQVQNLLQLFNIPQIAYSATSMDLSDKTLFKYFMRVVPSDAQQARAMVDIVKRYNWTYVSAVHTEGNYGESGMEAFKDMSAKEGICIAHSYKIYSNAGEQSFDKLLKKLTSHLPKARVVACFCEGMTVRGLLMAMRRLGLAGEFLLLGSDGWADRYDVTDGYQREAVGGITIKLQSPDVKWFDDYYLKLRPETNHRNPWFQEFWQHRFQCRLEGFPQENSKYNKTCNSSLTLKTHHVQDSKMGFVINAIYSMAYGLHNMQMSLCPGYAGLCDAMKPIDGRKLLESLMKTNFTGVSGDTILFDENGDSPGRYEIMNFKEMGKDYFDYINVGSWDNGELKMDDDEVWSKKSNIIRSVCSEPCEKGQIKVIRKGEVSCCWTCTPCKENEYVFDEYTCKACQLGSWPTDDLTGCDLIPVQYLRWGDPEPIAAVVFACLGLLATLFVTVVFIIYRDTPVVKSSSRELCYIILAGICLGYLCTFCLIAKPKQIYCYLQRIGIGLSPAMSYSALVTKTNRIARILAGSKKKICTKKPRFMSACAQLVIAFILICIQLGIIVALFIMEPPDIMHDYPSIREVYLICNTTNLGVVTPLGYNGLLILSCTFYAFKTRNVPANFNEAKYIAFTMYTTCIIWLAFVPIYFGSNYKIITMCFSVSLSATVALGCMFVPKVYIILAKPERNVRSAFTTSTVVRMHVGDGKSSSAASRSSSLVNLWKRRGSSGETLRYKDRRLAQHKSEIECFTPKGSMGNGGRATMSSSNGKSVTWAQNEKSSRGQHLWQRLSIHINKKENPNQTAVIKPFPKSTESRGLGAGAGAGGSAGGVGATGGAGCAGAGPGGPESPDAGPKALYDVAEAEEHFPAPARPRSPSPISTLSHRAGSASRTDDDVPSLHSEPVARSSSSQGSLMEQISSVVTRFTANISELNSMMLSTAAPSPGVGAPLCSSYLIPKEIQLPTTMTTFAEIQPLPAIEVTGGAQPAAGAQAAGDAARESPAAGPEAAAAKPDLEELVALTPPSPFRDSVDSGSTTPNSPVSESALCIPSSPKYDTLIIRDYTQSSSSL
# measurement-description: Negative allosteric modulation of human mGlu5 receptor expressed in HEK293 cells assessed as inhibition of L-glutamate-induced activity after 1 hr by FLIPR assay relative to control
# Type: cell-based
# Set-up: concentration or dose not given beside the values
# condition-notes: concentration not given here
Label scheme for inhibition: lower than 50% is rule not met, 50% and above is rule met.

Completed entries (count: 3):
| compound | class |
| --- | --- |
| O=C(C1CCC(F)(F)CC1)N1CCc2nc(C#Cc3ccccc3)sc2C1 | rule not met |
| O=S(=O)(C1CCCCC1)N1CCc2nc(C#Cc3ccccc3)sc2C1 | rule met |
| COC1CC(C(=O)N2CCc3nc(C#Cc4ccccc4)sc3C2)C1 (stereo not given) | rule not met |

Check this compound for inhibition at or above 50%: `CC(=O)N1CCc2nc(C#Cc3ccccc3)sc2C1`
rule met
